run.description: Observed MRT infinity in ICR (CD-1) mouse at 1 mg/kg, iv measured upto 24 hrs
Type: ADME, organism-based
recorded.conditions: in vivo
value.type: MRT inf (h)
Quick reminder: number only, in h, skip the unit.

Would you please look over these solved cases?
[
  {
    "molecule": "C[C@@H]1[C@H](O)[C@@H](C)/C=C/C=C/C=C/C=C/C=C/C=C/C=C/[C@H](O[C@@H]2O[C@H](C)[C@@H](O)[C@H](NC(=O)CN)[C@@H]2O)C[C@@H]2O[C@](O)(C[C@@H](O)C[C@@H](O)[C@H](O)CC[C@@H](O)C[C@@H](O)CC(=O)O[C@H]1C)C[C@H](O)[C@H]2C(=O)N1CCN(CCO)CC1",
    "units.text": "h",
    "MRT inf": 10.5
  },
  {
    "molecule": "CNCC(=O)N[C@@H]1[C@H](O)[C@H](O[C@H]2/C=C/C=C/C=C/C=C/C=C/C=C/C=C/[C@H](C)[C@@H](O)[C@@H](C)[C@H](C)OC(=O)C[C@H](O)C[C@H](O)CC[C@@H](O)[C@H](O)C[C@H](O)C[C@]3(O)C[C@H](O)[C@@H](C(=O)NCCN)[C@H](C2)O3)O[C@H](C)[C@H]1O",
    "units.text": "h",
    "MRT inf": 29.5
  },
  {
    "molecule": "CNCC(=O)N[C@@H]1[C@H](O)[C@H](O[C@H]2/C=C/C=C/C=C/C=C/C=C/C=C/C=C/[C@H](C)[C@@H](O)[C@@H](C)[C@H](C)OC(=O)C[C@H](O)C[C@H](O)CC[C@@H](O)[C@H](O)C[C@H](O)C[C@]3(O)C[C@H](O)[C@@H](C(=O)N4CCN(C(C)(C)CO)CC4)[C@H](C2)O3)O[C@H](C)[C@H]1O",
    "units.text": "h",
    "MRT inf": 25.4
  }
]

Now look at this one.
Q: Query: MRT inf; subject: C[C@@H]1[C@H](O)[C@@H](C)/C=C/C=C/C=C/C=C/C=C/C=C/C=C/[C@H](O[C@@H]2O[C@H](C)[C@@H](O)[C@H](N)[C@@H]2O)C[C@@H]2O[C@](O)(C[C@@H](O)C[C@@H](O)[C@H](O)CC[C@@H](O)C[C@@H](O)CC(=O)O[C@H]1C)C[C@H](O)[C@H]2C(=O)O [AMPHOTERICIN B]
Result: 28.8

====

run.description: Observed clearance in ICR (CD-1) mouse at 1 mg/kg, iv measured upto 24 hrs
Type: ADME, organism-based
Parameters: dose 1 mg/kg, time < 24 hrs, route iv
recorded.conditions: in vivo, iv, 1 mg/kg, read-out: AUC
value.type: clearance (mL/min/kg)
Quick reminder: number only, in mL/min/kg, skip the unit.

Q: Query: clearance; subject: C[C@@H]1[C@H](O)[C@@H](C)/C=C/C=C/C=C/C=C/C=C/C=C/C=C/[C@H](O[C@@H]2O[C@H](C)[C@@H](O)[C@H](N)[C@@H]2O)C[C@@H]2O[C@](O)(C[C@@H](O)C[C@@H](O)[C@H](O)CC[C@@H](O)C[C@@H](O)CC(=O)O[C@H]1C)C[C@H](O)[C@H]2C(=O)O [AMPHOTERICIN B]
Result: 4.02
